target: acetylcholine receptor (Homo sapiens); assay: SPR binding affinity (RU) of optimized 5mer/6mer/7mer peptides, Examples 6-7; settings: SPR, Resonance Units; peptides tested at 10 μM; 6mer-2 Top sequence
quantity_kind: Binding affinity (Ru)
Please state the figure in Ru; there is no need to write the unit.

Solved entries (count: 5):
substance | Binding affinity, Ru
6mer-2-430 (RWFRRR) | 139
6mer-2-588 (KWFYKK) | 149
6mer-2-472 (RSRLRR) | 148
6mer-2-545 (KLYCRK) | 125
6mer-2-452 (KGLYKR) | 146

Look at this substance and give its reported Binding affinity. 6mer-2-520 (KSYCKR) 144

Repeat for the following substance: 6mer-2-477 (RSRTRR) 135

Repeat for the following substance: 6mer-2-524 (RGIQKR) 128

Repeat for the following substance: 6mer-2-412 (KRFLKK) 139

Repeat for the following substance: 6mer-2-426 (KGQRRK) 141

Repeat for the following substance: 6mer-2-595 (KLRCKK) 154

Repeat for the following substance: 6mer-2-557 (KWVLRK) 123

Repeat for the following substance: 6mer-2-540 (KRLTRR) 142

Repeat for the following substance: 6mer-2-465 (KGVSKR) 122

Repeat for the following substance: 6mer-2-537 (KVLCKR) 153

Repeat for the following substance: 6mer-2-410 (KRFRKK) 153

###

biological target: acetylcholine receptor (Homo sapiens); test: SPR binding affinity (RU) of optimized 5mer/6mer/7mer peptides, Examples 6-7; conditions: SPR, Resonance Units; peptides tested at 10 μM; 6mer-1 Bottom sequence
The following ranges of Binding affinity define the classes used here: LOW: < 30 Ru; MID: ≥ 30 Ru and < 40 Ru; HIGH: ≥ 40 Ru

substance | class_label
6mer-1-1130 (RKATFR) | MID
6mer-1-1018 (KKTAFK) | LOW
6mer-1-1153 (RKHNKK) | LOW
6mer-1-1103 (KREDNK) | LOW
6mer-1-1073 (RKYMWK) | LOW

Using the reported Binding affinity, which band applies to 6mer-1-1167 (KRHMMK) ? HIGH

Repeat for the following substance: 6mer-1-1169 (RKMDIR) MID

Repeat for the following substance: 6mer-1-1134 (KRMSWK) LOW

Repeat for the following substance: 6mer-1-1140 (KRATMK) HIGH

Repeat for the following substance: 6mer-1-1006 (KKDKIK) LOW

Repeat for the following substance: 6mer-1-1052 (KRHWIR) MID

Repeat for the following substance: 6mer-1-1031 (RKDTHK) MID

###

biological target: Acetylcholine receptor-overexpressing TE671 cells (Homo sapiens, UniProt P02708); construct: endogenous in cells; host or cells: TE671 cells; assay: Calcium imaging (Fura-2-AM) of nicotine response, acetylcholine receptor inhibition; assay type: cell-based; details: TE671 cells, nicotine 400 uM, calcium imaging
Sequence (P07510 23-517): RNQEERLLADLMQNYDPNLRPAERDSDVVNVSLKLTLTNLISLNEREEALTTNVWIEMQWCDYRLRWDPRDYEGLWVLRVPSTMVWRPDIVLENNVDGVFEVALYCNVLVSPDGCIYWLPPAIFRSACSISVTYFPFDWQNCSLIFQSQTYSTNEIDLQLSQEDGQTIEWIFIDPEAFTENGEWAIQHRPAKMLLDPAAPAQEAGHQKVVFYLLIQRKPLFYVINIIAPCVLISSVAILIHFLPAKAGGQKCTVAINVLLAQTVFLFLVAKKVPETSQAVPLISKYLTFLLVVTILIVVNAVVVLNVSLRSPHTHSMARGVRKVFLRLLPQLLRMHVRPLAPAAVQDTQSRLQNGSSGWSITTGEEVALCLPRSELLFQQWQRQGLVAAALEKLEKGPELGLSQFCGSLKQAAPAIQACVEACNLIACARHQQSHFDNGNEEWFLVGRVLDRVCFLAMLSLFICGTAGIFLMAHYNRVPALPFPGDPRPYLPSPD
Sequence (P11230 24-501, further chain): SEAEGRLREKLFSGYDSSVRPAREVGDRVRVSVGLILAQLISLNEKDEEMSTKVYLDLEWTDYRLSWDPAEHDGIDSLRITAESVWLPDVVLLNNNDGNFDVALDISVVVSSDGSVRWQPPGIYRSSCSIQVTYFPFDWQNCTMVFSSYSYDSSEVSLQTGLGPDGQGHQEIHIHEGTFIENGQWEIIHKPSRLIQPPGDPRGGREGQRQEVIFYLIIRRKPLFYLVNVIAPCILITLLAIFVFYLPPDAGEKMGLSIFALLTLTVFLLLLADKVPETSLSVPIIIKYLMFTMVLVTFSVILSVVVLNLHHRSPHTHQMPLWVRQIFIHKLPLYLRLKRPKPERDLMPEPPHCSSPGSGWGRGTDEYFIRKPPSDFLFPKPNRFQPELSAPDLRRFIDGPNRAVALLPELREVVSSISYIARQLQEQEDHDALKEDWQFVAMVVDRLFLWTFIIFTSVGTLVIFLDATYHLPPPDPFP
Sequence (Q07001 22-517, further chain): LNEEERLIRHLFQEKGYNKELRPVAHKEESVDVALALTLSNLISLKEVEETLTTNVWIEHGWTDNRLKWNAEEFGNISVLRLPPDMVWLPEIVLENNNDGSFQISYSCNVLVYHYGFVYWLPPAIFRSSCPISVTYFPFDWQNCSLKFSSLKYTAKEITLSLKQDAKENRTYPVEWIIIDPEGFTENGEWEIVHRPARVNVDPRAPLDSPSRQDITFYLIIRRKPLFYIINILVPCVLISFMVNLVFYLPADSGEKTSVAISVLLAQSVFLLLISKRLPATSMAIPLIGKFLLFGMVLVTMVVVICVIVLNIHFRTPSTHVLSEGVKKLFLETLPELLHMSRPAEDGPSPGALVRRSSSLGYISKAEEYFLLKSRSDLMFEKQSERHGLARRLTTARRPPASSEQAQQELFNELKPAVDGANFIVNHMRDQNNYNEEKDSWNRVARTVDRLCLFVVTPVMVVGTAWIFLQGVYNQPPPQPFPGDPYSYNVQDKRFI
Sequence (P02708 21-457): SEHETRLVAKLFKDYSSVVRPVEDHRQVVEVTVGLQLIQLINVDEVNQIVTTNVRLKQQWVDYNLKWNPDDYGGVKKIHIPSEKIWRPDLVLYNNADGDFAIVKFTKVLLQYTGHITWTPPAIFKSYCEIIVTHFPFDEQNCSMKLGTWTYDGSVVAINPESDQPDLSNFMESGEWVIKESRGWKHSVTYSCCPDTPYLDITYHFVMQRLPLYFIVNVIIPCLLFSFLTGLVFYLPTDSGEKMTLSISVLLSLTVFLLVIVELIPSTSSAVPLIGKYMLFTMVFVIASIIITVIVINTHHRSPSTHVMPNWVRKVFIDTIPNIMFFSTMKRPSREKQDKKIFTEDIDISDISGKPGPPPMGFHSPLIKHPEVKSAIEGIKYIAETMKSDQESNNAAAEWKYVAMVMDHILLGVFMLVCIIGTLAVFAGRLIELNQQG
No end group written: not given here.
quantity_kind: concentration at which acetylcholine receptors were inhibited (µM)
Please state the figure in µM; there is no need to write the unit.

substance | value_units | recorded_value
WTWKGRKSLLR [Espep2-11mer, WTWKGRKSLLR, reference compound] | µM | 5
RRGVRR [6mer-1-210] | µM | 10

Look at this substance and give its reported concentration at which acetylcholine receptors were inhibited. RWRYKR [6mer-2-136] 10

Repeat for the following substance: RKRIRR [6mer-1-43, RKRIRR] 10

Repeat for the following substance: KWRQKR [6mer-2-233] 10

###

biological target: acetylcholine receptor (Homo sapiens); experiment: SPR binding affinity (RU) of optimized 5mer/6mer/7mer peptides, Examples 6-7; conditions: SPR, Resonance Units; peptides tested at 10 μM; 6mer-1 Bottom sequence
quantity_kind: Binding affinity

Solved entries (count: 6):
substance | Binding affinity
6mer-1-1177 (RRHTMR) | 21 Ru
6mer-1-1083 (KKNAVR) | 36 Ru
6mer-1-1079 (RKHPVK) | 25 Ru
6mer-1-1189 (KKCHWR) | 40 Ru
6mer-1-1197 (KRPMAK) | 21 Ru
6mer-1-1116 (KRHPFR) | 35 Ru

Look at this substance and give its reported Binding affinity. 6mer-1-1072 (KKCTPR) 36 Ru

Repeat for the following substance: 6mer-1-1058 (KRFPWR) 21 Ru

Repeat for the following substance: 6mer-1-1020 (KKMEAK) 38 Ru

Repeat for the following substance: 6mer-1-1044 (KKHHIR) 24 Ru

Repeat for the following substance: 6mer-1-1011 (RKKPEK) 35 Ru

###

target: acetylcholine receptor (Homo sapiens); assay: SPR binding affinity (RU) of optimized 5mer/6mer/7mer peptides, Examples 6-7; conditions: 6mer-1 Top sequence; SPR; peptides tested at 10 μM
The reader will find reported Binding affinity values listed item by item below.
Please state the figure in Ru; there is no need to write the unit.

Solved entries (count: 5):
substance | value_units | Binding affinity
6mer-1-234 (RRGISR) | Ru | 142
6mer-1-251 (RKVQSK) | Ru | 133
6mer-1-221 (KKWFQR) | Ru | 148
6mer-1-321 (RKQVRR) | Ru | 154
6mer-1-384 (RKVICK) | Ru | 148

Look at this substance and give its reported Binding affinity. 6mer-1-254 (RKSLSK) 137

Repeat for the following substance: 6mer-1-301 (RRSILR) 154

Repeat for the following substance: 6mer-1-305 (RKWISR) 153

###

molecular target: acetylcholine receptor (Homo sapiens, UniProt P02708); assay: SPR binding affinity (RU) of optimized 5mer/6mer/7mer peptides, Examples 6-7; settings: SPR, peptides tested at 10 μM; 6mer-1 Top sequence
Sequence (P02708 21-457): as above
The reader will find reported Binding affinity values listed item by item below.
Please state the figure in Ru; there is no need to write the unit.

substance | Binding affinity [Ru]
6mer-1-580 (KKSLQK) | 121
6mer-1-403 (KRSQTK) | 153

Now for another entry.
Lookup: Binding affinity / acetylcholine receptor (Homo sapiens, UniProt P02708) / 6mer-1-426 (KKGQYR) 131

###

molecular target: acetylcholine receptor (Homo sapiens); assay: SPR binding affinity (RU) of optimized 5mer/6mer/7mer peptides, Examples 6-7; conditions: SPR, Resonance Units; peptides tested at 10 μM; 6mer-2 Bottom sequence
quantity_kind: Binding affinity
Could you give the number and then its unit, please?

Look at this substance and give its reported Binding affinity. 6mer-2-990 (RKKMKR) 41 Ru

Repeat for the following substance: 6mer-2-923 (RCCAKK) 33 Ru

Repeat for the following substance: 6mer-2-624 (KPPIRK) 33 Ru

Repeat for the following substance: 6mer-2-616 (REPHRK) 26 Ru

Repeat for the following substance: 6mer-2-800 (RTAWKK) 11 Ru

###

target: acetylcholine receptor (Homo sapiens, UniProt P02708); test: SPR binding affinity (RU) of optimized 5mer/6mer/7mer peptides, Examples 6-7; conditions: SPR, peptides tested at 10 μM; 6mer-1 Top sequence (top combinations)
quantity_kind: Binding affinity (Ru)
Please state the figure in Ru; there is no need to write the unit.

Solved entries (count: 5):
substance | Binding affinity [Ru]
6mer-1-17 (KRVQCR) | 135
6mer-1-152 (KRVIRR) | 154
6mer-1-116 (RKVRCK) | 139
6mer-1-198 (KRLFCR) | 148
6mer-1-126 (KKWIQR) | 148

Look at this substance and give its reported Binding affinity. 6mer-1-156 (RRSVTK) 154

Repeat for the following substance: 6mer-1-149 (RRWVCK) 131

Repeat for the following substance: 6mer-1-91 (RKQQCK) 131

Repeat for the following substance: 6mer-1-35 (RRGRQR) 136

Repeat for the following substance: 6mer-1-81 (RRWQLR) 148

Repeat for the following substance: 6mer-1-188 (RKSLQK) 122

Repeat for the following substance: 6mer-1-37 (KKWVLR) 121

Repeat for the following substance: 6mer-1-118 (RKLQLR) 127

###

target: acetylcholine receptor (Homo sapiens, UniProt P02708); test: SPR binding affinity (RU) of optimized 5mer/6mer/7mer peptides, Examples 6-7; conditions: SPR, Resonance Units; peptides tested at 10 μM; 6mer-2 Bottom sequence
quantity_kind: Binding affinity (Ru)
Please state the figure in Ru; there is no need to write the unit.

Solved entries (count: 3):
substance | tested_on | recorded_value
6mer-2-700 (RPWHKK) | acetylcholine receptor (Homo sapiens, UniProt P02708) | 15
6mer-2-750 (RKCVKR) | acetylcholine receptor (Homo sapiens, UniProt P02708) | 29
6mer-2-704 (KDWHRK) | acetylcholine receptor (Homo sapiens, UniProt P02708) | 20

Look at this substance and give its reported Binding affinity. 6mer-2-731 (KASWKK) 19

Repeat for the following substance: 6mer-2-868 (RTPNRR) 30

###

The reader will find reported Binding affinity values listed item by item below.
target: acetylcholine receptor (Homo sapiens); experiment: SPR binding affinity (RU) of optimized 5mer/6mer/7mer peptides, Examples 6-7; settings: SPR, peptides tested at 10 μM; 6mer-1 Top sequence (top combinations)
Please state the figure in Ru; there is no need to write the unit.

Solved entries (count: 10):
substance | Binding affinity (Ru)
6mer-1-72 (RKVQLK) | 139
6mer-1-38 (RRQQTK) | 126
6mer-1-49 (RRWQTR) | 149
6mer-1-108 (RRLLLR) | 139
6mer-1-5 (KRQIRK) | 135
6mer-1-88 (KRWICK) | 121
6mer-1-195 (KRGISR) | 122
6mer-1-86 (KKWRQK) | 142
6mer-1-191 (KKQILK) | 139
6mer-1-107 (KKQRSR) | 131

Look at this substance and give its reported Binding affinity. 6mer-1-16 (KKQYCR) 136

Repeat for the following substance: 6mer-1-115 (RRSLSR) 133

Repeat for the following substance: 6mer-1-76 (RRLQLK) 126
